test system: KMS.12.BM cells; test: KMS.12.BM cell viability assay (Cell Titer-GLO, ATP quantitation); format: cell-based; conditions: KMS.12.BM human myeloma cells, 3 days, concentration required for 50% cell death; read-out: KMS cellular IC50
MEASUREMENT LABEL: IC50

Would you kindly share the measured IC50 for Cc1cc2c(cc(N[C@@H]3CCN(C)[C@H](C)C3)c3nnc(C)n32)n1Cc1ccccc1 (mixture of isomers) ?
≤ 1 µM

* * *

Listed here: items and their measured pIC50.
target: BRD4-BD2 (Homo sapiens (Human), UniProt O60885); experiment: BRD4 AlphaScreen assay, BRD4-BD2; settings: biotin-labeled tetra-acetylated histone H4 peptide, 75 min, room temperature, read-out: BRD4 BD-2 enzyme IC50
pIC50: −log10 of the molar value. Structures can show the parent of a compound that is named as a salt.

Below, each entry is followed by its recorded pIC50 result.
Cc1cc2c(cc(N[C@@H]3CCN(C(=O)OC(C)(C)C)C3)c3nnc(C)n32)n1Cc1ccccc1 [Example 149]; ≥ 7.00
Cc1nnc2ccc3c(cc(C(F)(F)F)n3Cc3ccccc3)n12 [Example 138, Trifluoroacetate Salt]; 6.00 to 7.00
Cc1nnc2ccc3c(ccn3C(C)c3ccccc3)n12 (racemic) [Example 4]; ≥ 7.00
Cc1cc2c(cc(NC3CCN(C)C3)c3nnc(C)n32)n1Cc1ccccc1 (racemic) [Example 145, bis(trifluoroacetate) Salt]; ≥ 7.00
Cc1cc2c(ccc3nnc(C)n32)n1Cc1cccc(C(=O)NO)c1 [Example 31, Trifluoroacetate Salt]; ≥ 7.00

Look at this compound and give its reported pIC50. Cc1nnc2ccc3c(cc(C(=O)NC(C)C)n3Cc3ccccc3)n12 [Example 84]
6.00 to 7.00

Param item: Cc1cc2c(ccc3nnc(C)n32)n1Cc1ccc(CN2CC(O)C2)cc1 [Example 52]
6.00 to 7.00

Same read-out for Cc1cc2c(ccc3nnc(C)n32)n1Cc1cccc(CN2CCC2)c1 [Example 28] ?
≥ 7.00

Moving on to CCNC(=O)c1cc2c(ccc3nnc(C)n32)n1Cc1cccc(CN2CCC2)c1 [Example 121, bis(trifluoroacetate) Salt]
≥ 7.00

Lookup Cc1cc2c(cc(NC3CCNCC3)c3nnc(C)n32)n1Cc1ccccc1 [Example 206]
≥ 7.00

Likewise for Cc1cc2c(cc(NC3CN(C(=O)OC(C)(C)C)C3)c3nnc(C)n32)n1Cc1ccccc1 [Example 244] ?
≥ 7.00

Follow-up entry: Cc1cc2c(cc(NC3CCN(C)CC3)c3nnc(C)n32)n1Cc1cccnc1 [Example 154]
≥ 7.00

# iterate: Cc1nnc2ccc3c(cc(-c4cn(CCN5CCOCC5)cn4)n3Cc3ccccc3)n12 [Example 75]
≥ 7.00

Now consider Cc1nnc2ccc3c(cc(C#N)n3Cc3ccccc3)n12 [Example 227, Trifluoroacetate Salt] .
≥ 7.00

Same lookup for Cc1cc2c(cc(N[C@H]3CCOC3)c3nnc(C)n32)n1Cc1ccccc1 [Example 148] , please.
≥ 7.00

Check Cc1cc2c(cc(NC3CCN(C(=O)OC(C)(C)C)CC3)c3nnc(C)n32)n1Cc1ccccc1 [Example 214] too.
≥ 7.00

* * *

Molecular target: BRD4-BD1 (Homo sapiens (Human))
Test: BRD4 AlphaScreen assay, BRD4-BD1
Type: binding
Details: biotin-labeled tetra-acetylated histone H4 peptide, 75 min, room temperature, read-out: BRD4 BD-1 enzyme IC50
Protocol: BRD4-BD1 and BRD4-BD2 assays were conducted in white 384-well polystyrene plate in a final volume of 20 μL for BD1 and 40 μL for BD2. Inhibitors were first serially diluted in DMSO and added to the plate wells before the addition of other reaction components. The final concentration of DMSO in the assay was 1.25% (BD1) and 0.83% (BD2). […] After plate sealing, the plate was incubated in the dark at room temperature for 75 min. before reading on a PHERAstar FS plate reader (BMG Labtech). […]
Structures can show the parent of a compound that is named as a salt.
MEASUREMENT LABEL: IC50

Answered examples (5):
Cc1cc2c(ccc3nnc(C)n32)n1Cc1ccc(CN2CCC2)cc1; ≤ 100 nM
CC(=O)N1CCC(c2cc3c(ccc4nnc(C)n43)n2Cc2ccccc2)C1 (racemic) [Example 187, Trifluoroacetate Salt]; 1000 to 10000 nM
Cc1nnc2ccc3c(cc(-c4ccn(C)n4)n3Cc3cc(Cl)cc(CN4CCC4)c3)n12 [Example 185, tris(trifluoroacetate) Salt]; ≤ 100 nM
COC(=O)Nc1cc2c(cc(C)n2Cc2ccccc2)n2c(C)nnc12; ≤ 100 nM
Cc1nnc2ccc3c(cc(-c4ncco4)n3Cc3ccccc3)n12 [Example 143, Trifluoroacetate Salt]; ≤ 100 nM

Here is the next item to consider.
Request the reported IC50 associated with Cc1cc2c(ccc3nnc(C)n32)n1Cc1ccc(Cl)cc1
≤ 100 nM

* * *

molecular target: BRD4-BD1 (Homo sapiens (Human), UniProt O60885); assay: BRD4 AlphaScreen assay, BRD4-BD1; details: biotin-labeled tetra-acetylated histone H4 peptide, 75 min, room temperature, read-out: BRD4 BD-1 enzyme IC50
Counter-ions that a name gives are not always drawn.
Reported IC50 is given for each of the following compounds.

Solved entries (count: 5):
CCNC(=O)Nc1cccc(Cn2c(C)cc3c2ccc2nnc(C)n23)c1 [Example 43, Trifluoroacetate Salt]; 100 to 1000 nM
Cc1nnc2ccc3c(cc(C(=O)N4CCOCC4)n3Cc3cccc(Cl)c3)n12 [Example 116, Trifluoroacetate Salt]; 1000 to 10000 nM
Cc1cc2c(ccc3nnc(C)n32)n1Cc1cccc(CNCCO)c1; ≤ 100 nM
Cc1cc2c(ccc3nnc(C)n32)n1Cc1cccc(NC(N)=O)c1; 100 to 1000 nM
Cc1cc2c(cc(NC3CCNCC3)c3nnc(C)n32)n1Cc1ccccc1; ≤ 100 nM

Can you look up the measured IC50 of Cc1cc2c(cc(NCCN(C)C)c3nnc(C)n32)n1Cc1ccccc1 for me?
≤ 100 nM

Now give it for Cc1nnc2ccc3c(cc(-c4cncn4C)n3Cc3ccccc3)n12 too.
100 to 1000 nM

* * *

target: BRD4-BD1 (Homo sapiens (Human)); assay: BRD4 AlphaScreen assay, BRD4-BD1; settings: biotin-labeled tetra-acetylated histone H4 peptide, 75 min, room temperature, read-out: BRD4 BD-1 enzyme IC50
Structures can show the parent of a compound that is named as a salt.
Form field: IC50 (one value per entry).

Cc1nnc2ccc3c(cc(-c4ccn(CC(C)C#N)n4)n3Cc3ccccc3)n12 (racemic) [Example 88, Trifluoroacetate Salt]; ≤ 0.1 µM

Provide value of IC50 for this record tested with BRD4-BD1 (Homo sapiens (Human)): Cc1nnc2ccc3c(cc(-c4ncco4)n3Cc3cc(Cl)cc(CN4CC(O)C4)c3)n12 [Example 198, bis(trifluoroacetate) Salt]
≤ 0.1 µM

Would you mind doing Cc1cc2c(ccc3nnc(C)n32)n1Cc1cccnc1 as well?
0.1 to 1 µM

Then this molecule: Cc1nnc2ccc3c(cnn3Cc3ccccc3)n12
0.1 to 1 µM

Moving on to the next molecule: CCCNc1cc2c(cc(C)n2Cc2ccccc2)n2c(C)nnc12
≤ 0.1 µM

Item: Cc1nnc2ccc3c(cc(-c4ccn(CCC(=O)N5CCC5)n4)n3Cc3cccc(Cl)c3)n12
≤ 0.1 µM

* * *

Recorded IC50 for the following compounds
Molecular target: BRD4-BD1 (Homo sapiens (Human))
Assay: BRD4 AlphaScreen assay, BRD4-BD1
Conditions: biotin-labeled tetra-acetylated histone H4 peptide, 75 min, room temperature, read-out: BRD4 BD-1 enzyme IC50
Method: BRD4-BD1 and BRD4-BD2 assays were conducted in white 384-well polystyrene plate in a final volume of 20 μL for BD1 and 40 μL for BD2. Inhibitors were first serially diluted in DMSO and added to the plate wells before the addition of other reaction components. The final concentration of DMSO in the assay was 1.25% (BD1) and 0.83% (BD2). […] After plate sealing, the plate was incubated in the dark at room temperature for 75 min. before reading on a PHERAstar FS plate reader (BMG Labtech). […]
Structures can show the parent of a compound that is named as a salt.

Some solved entries appear below for comparison.
Cc1cc2c(cc(NC3CCOCC3)c3nnc(C)n32)n1Cc1ccccc1 [Example 146]; ≤ 100 nM
Cc1nnc2ccc3c(cc(-c4ncco4)n3Cc3cc(Cl)cc(CN4CC(C)(C)C4)c3)n12 [Example 196, bis(trifluoroacetate) Salt]; ≤ 100 nM
CNC(=O)c1cc2c(ccc3nnc(C)n32)n1Cc1cccc(Cl)c1 [Example 99]; ≤ 100 nM
Cc1cc2c(ccc3nnc(C)n32)n1Cc1cccc(F)c1 [Example 15]; ≤ 100 nM
COc1cc2c(cc(C)n2Cc2ccccc2)n2c(C)nnc12 [Example 264]; 100 to 1000 nM
Cc1nnc2ccc3c(cc(-c4ccn(CCC(=O)N(C)C)n4)n3Cc3cccc(Cl)c3)n12 [Example 103]; ≤ 100 nM
Cc1cc2c(cc(NC(=O)N(C)C)c3nnc(C)n32)n1Cc1ccccc1 [Example 251]; 100 to 1000 nM
CNC(=O)c1cccc(Cn2c(C)cc3c2ccc2nnc(C)n23)c1 [Example 32, Trifluoroacetate Salt]; 100 to 1000 nM
Cc1cc2c(cc(N[C@H]3CCN(C)[C@H](C)C3)c3nnc(C)n32)n1Cc1ccccc1 (racemic) [Example 225]; ≤ 100 nM

Proceeding to the next compound to report its IC50.
Consider the compound shown here: Cc1nnc2ccc3c(cc(CO)n3Cc3ccccc3)n12 [Example 56] What is its recorded IC50?
100 to 1000 nM
